# target: T1, IL-18 binding protein (IL-18BP) (UniProt O95998 31-194); also: unit not given here
# T1 sequence (looked up): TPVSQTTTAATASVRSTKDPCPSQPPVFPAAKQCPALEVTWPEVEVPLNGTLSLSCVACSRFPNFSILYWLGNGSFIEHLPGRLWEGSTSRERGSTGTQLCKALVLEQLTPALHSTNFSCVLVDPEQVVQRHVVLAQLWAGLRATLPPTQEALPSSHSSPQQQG
# assayComment: cell-based or functional assay
Assign Activity, +100 nM BP, DF-25000004 to each entry below.
Provide a numeric answer; units are not to be included.

*Q* Please report the recorded Activity, +100 nM BP, DF-25000004 for IL-18 variant G3L, E6Q, T63H, N91M, R104H (ligand) YFLKLQSKLSVIRNLNDQVLFIDQGNRPLFEDMTDSDMRDNAPRTIFIISMYKDSQPRGMAVHISVKSEKISTLSSENKIISFKEMNPPDMIKDTKSDIIFFQHSVPGHDNKMQFESSSYEGYFLASEKERDLFKLILKKEDELGDRSIMFTVQNED .
*A* 0.07

*Q* // repeat for IL-18 variant G3P, E6R, K53T, D54Y, S55I, T63V, N91G, R104K (ligand) YFPKLRSKLSVIRNLNDQVLFIDQGNRPLFEDMTDSDMRDNAPRTIFIISMYTYIQPRGMAVVISVKSEKISTLSSENKIISFKEMNPPDGIKDTKSDIIFFQKSVPGHDNKMQFESSSYEGYFLASEKERDLFKLILKKEDELGDRSIMFTVQNED and report
*A* 0.07

*Q* Can you handle IL-18 variant G3Q, E6S, S55V, T63A, N91T (ligand) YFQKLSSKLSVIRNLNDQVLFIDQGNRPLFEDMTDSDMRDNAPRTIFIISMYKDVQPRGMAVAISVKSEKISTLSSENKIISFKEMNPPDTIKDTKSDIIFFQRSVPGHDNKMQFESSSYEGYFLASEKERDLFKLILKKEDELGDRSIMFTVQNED next?
*A* 0.15

*Q* Now the same for IL-18 variant G3Q, E6Q, K53T, D54W, S55F, N91Y (ligand) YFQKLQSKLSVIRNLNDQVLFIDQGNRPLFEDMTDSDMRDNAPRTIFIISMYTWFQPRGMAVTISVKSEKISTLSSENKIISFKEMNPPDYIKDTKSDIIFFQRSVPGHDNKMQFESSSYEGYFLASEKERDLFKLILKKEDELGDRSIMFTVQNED
*A* 0.14

*Q* IL-18 variant G3Q, E6H, S7Y, D23A, R27S, D54S, S55R, T63F, N91F, R104Q (ligand) YFQKLHYKLSVIRNLNDQVLFIAQGNSPLFEDMTDSDMRDNAPRTIFIISMYKSRQPRGMAVFISVKSEKISTLSSENKIISFKEMNPPDFIKDTKSDIIFFQQSVPGHDNKMQFESSSYEGYFLASEKERDLFKLILKKEDELGDRSIMFTVQNED , same question.
*A* 0.07

*Q* Next up: IL-18 variant G3Q, E6H, D54N, S55I, T63S, N91V (ligand) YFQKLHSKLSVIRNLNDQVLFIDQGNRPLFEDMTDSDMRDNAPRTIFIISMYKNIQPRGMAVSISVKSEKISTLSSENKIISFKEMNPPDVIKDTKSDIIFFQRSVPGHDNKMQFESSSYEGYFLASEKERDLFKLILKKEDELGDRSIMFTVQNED
*A* 0.71

*Q* Request: IL-18 variant G3P, E6R, D54W, S55Q, T63S, N91T, R104H (ligand) YFPKLRSKLSVIRNLNDQVLFIDQGNRPLFEDMTDSDMRDNAPRTIFIISMYKWQQPRGMAVSISVKSEKISTLSSENKIISFKEMNPPDTIKDTKSDIIFFQHSVPGHDNKMQFESSSYEGYFLASEKERDLFKLILKKEDELGDRSIMFTVQNED
*A* 0.12
